# merged literature set: pIC50 with Galectin-1 (Homo sapiens)
# Sequence (P09382 whole entry): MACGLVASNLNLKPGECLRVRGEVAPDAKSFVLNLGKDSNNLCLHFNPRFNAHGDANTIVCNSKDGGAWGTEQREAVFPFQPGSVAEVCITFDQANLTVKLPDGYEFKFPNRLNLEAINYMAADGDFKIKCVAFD
pIC50: −log10 of the molar value.
Label Fulfilled when pIC50 >= 6; otherwise Not fulfilled.

# molecule, targetOrSystem, classLabel
records = [
    ("CO[C@@H]1[C@@H](n2cc(-c3cc(F)c(Cl)c(Cl)c3)nn2)[C@@H](O)[C@@H](CO)O[C@H]1C(=O)N(c1cc(Cl)cc(C#N)c1)[C@H]1CCCC[C@@H]1O", "Galectin-1 (Homo sapiens)", "Fulfilled"),
    ("CO[C@@H]1[C@@H](n2cc(-c3cc(F)c(F)c(F)c3)nn2)[C@@H](O)[C@@H](CO)O[C@H]1C(=O)N(c1cc(Br)cc(C#N)c1)[C@H]1CCCC[C@@H]1O", "Galectin-1 (Homo sapiens)", "Fulfilled"),
    ("CO[C@@H]1[C@@H](n2cc(-c3cc(F)c(F)c(F)c3)nn2)[C@@H](O)[C@@H](CO)O[C@@H]1CC1=NOC(C(C)(C)O)C1 (stereo partly specified)", "Galectin-1 (Homo sapiens)", "Not fulfilled"),
    ("CO[C@@H]1[C@@H](n2cc(-c3cc(F)c(Cl)cc3F)nn2)[C@@H](O)[C@@H](CO)O[C@H]1C(=O)N(c1cc(Cl)cc(C#N)c1)[C@H]1CCCC[C@@H]1O", "Galectin-1 (Homo sapiens)", "Fulfilled"),
    ("Cn1ccc(CN(C(=O)[C@@H]2O[C@H](CO)[C@H](O)[C@H](n3cc(-c4cc(F)c(F)c(F)c4)nn3)[C@H]2O)[C@H]2CCCC[C@@H]2O)n1", "Galectin-1 (Homo sapiens)", "Not fulfilled"),
    ("CO[C@@H]1[C@@H](n2cc(-c3cc(F)cc(Cl)c3)nn2)[C@@H](O)[C@@H](CO)O[C@H]1C(=O)N(c1cc(Cl)cc(C#N)c1)[C@H]1CCCC[C@@H]1O", "Galectin-1 (Homo sapiens)", "Fulfilled"),
    ("O=C([C@@H]1O[C@H](CO)[C@H](O)C(n2cc(-c3cc(F)c(F)c(F)c3)nn2)[C@H]1OCCO)N(c1cc(Cl)cc(Cl)c1)[C@H]1CCCC[C@@H]1O (stereo partly specified)", "Galectin-1 (Homo sapiens)", "Fulfilled"),
    ("CO[C@@H]1[C@@H](n2cc(-c3cccc(F)c3)nn2)[C@@H](O)[C@@H](CO)O[C@H]1C(=O)N(c1cc(Cl)cc(Cl)c1)[C@H]1CCCC[C@@H]1O", "Galectin-1 (Homo sapiens)", "Fulfilled"),
    ("O=C([C@@H]1O[C@H](CO)[C@H](O)[C@H](n2cc(-c3cc(F)c(F)c(F)c3)nn2)[C@H]1O)N(c1cc(Cl)cc(Cl)c1)[C@H]1CCC[C@@H]1O", "Galectin-1 (Homo sapiens)", "Not fulfilled"),
]
